Target: CDK9/CyclinD3 (Homo sapiens (Human), UniProt P50750)
Sequence (P50750 whole entry): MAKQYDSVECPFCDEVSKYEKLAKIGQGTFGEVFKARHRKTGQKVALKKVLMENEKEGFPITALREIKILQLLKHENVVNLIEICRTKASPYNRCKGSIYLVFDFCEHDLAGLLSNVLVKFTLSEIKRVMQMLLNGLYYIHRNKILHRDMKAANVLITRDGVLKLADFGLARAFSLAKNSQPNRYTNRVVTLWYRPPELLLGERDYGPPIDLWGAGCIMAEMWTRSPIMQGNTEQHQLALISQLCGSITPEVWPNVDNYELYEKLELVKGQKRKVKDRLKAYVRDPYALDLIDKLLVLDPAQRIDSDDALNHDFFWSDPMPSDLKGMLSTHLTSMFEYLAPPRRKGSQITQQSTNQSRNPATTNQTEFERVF
Sequence (O75909 whole entry partner): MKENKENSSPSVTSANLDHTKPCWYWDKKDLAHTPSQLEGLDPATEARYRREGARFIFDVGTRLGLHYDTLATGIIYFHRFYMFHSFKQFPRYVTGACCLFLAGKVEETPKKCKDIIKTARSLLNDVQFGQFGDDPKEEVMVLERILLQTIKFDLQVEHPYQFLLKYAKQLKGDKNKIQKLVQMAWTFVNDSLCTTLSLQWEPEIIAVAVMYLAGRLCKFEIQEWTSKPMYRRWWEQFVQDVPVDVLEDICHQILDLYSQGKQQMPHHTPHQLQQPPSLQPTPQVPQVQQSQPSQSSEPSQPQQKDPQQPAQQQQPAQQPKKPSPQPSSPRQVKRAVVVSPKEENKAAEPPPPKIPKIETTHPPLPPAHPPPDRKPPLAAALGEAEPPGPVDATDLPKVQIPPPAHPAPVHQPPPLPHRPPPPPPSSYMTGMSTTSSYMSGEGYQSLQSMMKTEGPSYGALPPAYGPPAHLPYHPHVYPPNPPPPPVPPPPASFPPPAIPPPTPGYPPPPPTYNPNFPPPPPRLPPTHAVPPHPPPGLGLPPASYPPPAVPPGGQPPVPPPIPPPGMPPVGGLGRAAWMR
Assay: Kinase inhibitory activity, ADP-Glo Kinase Assay, CDK9/CyclinD3
Procedure: 1.1 Instrument and Kit Information […] The inhibition rate of each compound at each concentration point was calculated by the formula as follows and curve fitting was performed by GraphPad Prism 5 software to obtain the IC50 value.
quantityName: IC50 (nM)
Answers are plain numbers, in nM.

# itemSmiles, observedResult
data = [
    ("CCC1(CC)C(C)=Nc2c(F)cc(-c3nc(Nc4ccc(N5CCN(C)CC5)cn4)ncc3F)cc21", 16.4),
    ("CCN1CCN(Cc2ccc(Nc3ncc(F)c(-c4ccc5c(c4)C4(CCCC4)C(C)=N5)n3)nc2)CC1", 14.4),
]

// recorded IC50 for `CC1=Nc2c(F)cc(-c3nc(Nc4ccc(C5CCN(C)CC5)cn4)ncc3F)cc2C12CCCC2` : 5.36
